Tested on: SK-MEL-5
assay summary: Growth inhibition of human SK-MEL-5 cells incubated for 48 hrs by sulforhodamine B assay
Type: functional, cell-based
condition label: SK-MEL-5, 48 h, read-out: LC50 (the source's name)
endpoint name: CC50

given smiles: COc1cc(Cl)cc(-c2nn(-c3cccc(NC(=O)Nc4ccc(Cl)c(Cl)c4)c3)cc2-c2ccncc2)c1
target desc: SK-MEL-5
value: 6.23 µM
//
given smiles: COc1cc(Cl)cc(-c2nn(-c3cccc(NC(=O)Nc4cccc(C(F)(F)F)c4)c3)cc2-c2ccncc2)c1
target desc: SK-MEL-5
value: 54.5 µM
//
given smiles: O=C(Nc1cccc(-n2cc(-c3ccncc3)c(-c3cc(O)cc(Cl)c3)n2)c1)Nc1ccc(Cl)c(C(F)(F)F)c1
target desc: SK-MEL-5
value: 51.5 µM
//
given smiles: COc1cc(Cl)cc(-c2nn(-c3cccc(NC(=O)c4ccc(N5CCOCC5)c(C(F)(F)F)c4)c3)cc2-c2ccncc2)c1
target desc: SK-MEL-5
value: > 100 µM
//
given smiles: COc1cc(Cl)cc(-c2nn(-c3cccc(NC(=O)Nc4ccc(Cl)c(C(F)(F)F)c4)c3)cc2-c2ccncc2)c1
target desc: SK-MEL-5
value: 5.58 µM

---

Tested on: SK-MEL-2
assay summary: Growth inhibition of human SK-MEL-2 cells incubated for 48 hrs by sulforhodamine B assay
Type: functional, cell-based
condition label: SK-MEL-2, 48 h, read-out: TGI

given smiles: COc1cc(Cl)cc(-c2nn(-c3cccc(NC(=O)Nc4ccc(Cl)c(C(F)(F)F)c4)c3)cc2-c2ccncc2)c1
target desc: SK-MEL-2
readout qualifier: =
TGI [µM]: 42.1
//
given smiles: COc1cc(Cl)cc(-c2nn(-c3cccc(NC(=O)c4ccc(N5CCOCC5)c(C(F)(F)F)c4)c3)cc2-c2ccncc2)c1
target desc: SK-MEL-2
readout qualifier: >
TGI [µM]: 100
//
given smiles: COc1cc(Cl)cc(-c2nn(-c3cccc(NC(=O)Nc4ccc(Cl)c(Cl)c4)c3)cc2-c2ccncc2)c1
target desc: SK-MEL-2
readout qualifier: =
TGI [µM]: 37.4
//
given smiles: O=C(Nc1cccc(-n2cc(-c3ccncc3)c(-c3cc(O)cc(Cl)c3)n2)c1)Nc1ccc(Cl)c(Cl)c1
target desc: SK-MEL-2
readout qualifier: =
TGI [µM]: 40.4

---

Tested on: HOP-62
assay summary: Growth inhibition of human HOP62 cells incubated for 48 hrs by sulforhodamine B assay
Assay type: functional, cell-based
condition label: HOP-62, 48 h, read-out: pGI50 (converted)

given smiles: COc1cc(Cl)cc(-c2nn(-c3cccc(NC(=O)c4cccc(C(F)(F)F)c4)c3)cc2-c2ccncc2)c1
unit abbrev: µM
readout qualifier: >
GI50: 100

given smiles: COc1cc(Cl)cc(-c2nn(-c3cccc(NC(=O)Nc4ccc(Cl)c(C(F)(F)F)c4)c3)cc2-c2ccncc2)c1
unit abbrev: µM
readout qualifier: =
GI50: 2.14

given smiles: COc1cc(Cl)cc(-c2nn(-c3cccc(NC(=O)Nc4cc(C(F)(F)F)cc(C(F)(F)F)c4)c3)cc2-c2ccncc2)c1
unit abbrev: µM
readout qualifier: =
GI50: 0.646

given smiles: O=C(Nc1cccc(-n2cc(-c3ccncc3)c(-c3cc(O)cc(Cl)c3)n2)c1)Nc1ccc(Cl)c(C(F)(F)F)c1
unit abbrev: µM
readout qualifier: =
GI50: 3.09
